Reported viability at 28.5 h, 10 µM values follow for various compounds
- assay details: in vitro
- applied conditions: human, hela cells, % viability
Report the figure in % without appending any unit label.

Field: example entries. Status: answers known.
compound="O=c1c2ccccc2nc(S)n1CC(O)c1ccccc1 (stereo not drawn) [CBK288386]" reported_metric="viability at 28.5 h, 10 µM" reading_unit=% value_measured=85.8
compound="CCN1CC2(CCN(Cc3c(F)cccc3F)CC2)c2ccccc21 [CBK136986]" reported_metric="viability at 28.5 h, 10 µM" reading_unit=% value_measured=94
compound="Cc1nnc(SCCOc2ccc(Cl)c(C)c2)s1 [CBK026160]" reported_metric="viability at 28.5 h, 10 µM" reading_unit=% value_measured=89.9
compound="O=C(O)CCN1C(=O)c2ccc(Oc3ccc([N+](=O)[O-])cc3)cc2C1=O [CBK263357]" reported_metric="viability at 28.5 h, 10 µM" reading_unit=% value_measured=96.2
compound="CC(C)CCNC(=O)c1ccc(N2CCN(C(=O)c3ccccc3C(F)(F)F)CC2)nn1 [CBK153222]" reported_metric="viability at 28.5 h, 10 µM" reading_unit=% value_measured=114

Prompt line: Look at this compound and give its reported viability at 28.5 h, 10 µM. Cc1ccc(NC(=O)CSc2nnc(-c3cnccn3)s2)cc1 [CBK269872]
Response line: 83.3

Prompt line: And Fc1ccc(COc2cccc(CNCc3ccccn3)c2)cc1 [CBK269987C] ?
Response line: 109

Prompt line: And NS(=O)(=O)c1ccc(CCNC(=O)c2cc(-c3ccccc3)nc3ccccc23)cc1 [CBK264365] ?
Response line: 96.9

Prompt line: And COc1ncccc1C(=O)N1CCN(c2ccccc2)CC1 [CBK200166] ?
Response line: 103
